experimentalProtocol: Clinical plasma concentration
Format: in vivo, human
appliedConditions: oral; human plasma, converted from μg/mL
# Cmax values compiled below
reportedMetric: Cmax

compound="CC[C@H]1OC(=O)[C@H](C)[C@@H](O[C@H]2C[C@@](C)(OC)[C@@H](O)[C@H](C)O2)[C@H](C)[C@@H](O[C@@H]2O[C@H](C)C[C@H](N(C)C)[C@H]2O)[C@](C)(O)C[C@@H](C)C(=O)[C@H](C)[C@@H](O)[C@]1(C)O [Erythromycin]" result="1120 nM"
compound="CC[C@H]1OC(=O)[C@H](C)[C@@H](O[C@H]2C[C@@](C)(OC)[C@@H](O)[C@H](C)O2)[C@H](C)[C@@H](O[C@@H]2O[C@H](C)C[C@H](N(C)C)[C@H]2O)[C@](C)(OC)C[C@@H](C)C(=O)[C@H](C)[C@@H](O)[C@]1(C)O [Clarithromycin]" result="1550 nM"
